B1: Formin-binding protein 4, residues 200 to 261; numbered along this chain, Q8N3X1 (parent)
chain: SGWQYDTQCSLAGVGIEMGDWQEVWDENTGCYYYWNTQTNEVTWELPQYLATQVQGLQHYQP

- Variants of: B1
- ASSAY REMARKS: abundance fitness (aPCA) (normalised: wild type 0, dead -1); higher = more abundant; growth selection in yeast, the domain comes from the species named
- CONDITION SUMMARY: Homo sapiens
Would you kindly list abundance fitness for each of these variants?
One number for each entry.

List the reported abundance fitness of each variant below.
1. SGWQYDTQCSLAGVGIEMGSWQEVWDENTGCYYYWNTQTNEVTWELPQYLATQVQGLQHYQP
2. SGWQYDTQSSLAGVGIEMGDWQEVWDENTGCYYYWNTQTNEVTWELPQYLATQVQGLQHYQP
3. SGWQYDTQCSLAGVGIEMGDWQEVWDENTGCYYYWNTQTNEVTWELPQYLATQVQGLQHYEP
4. SGWQYDTQCSLAGVGIEMGDWQEVWDENTLCYYYWNTQTNEVTWELPQYLATQVQGLQHYQP
5. SGWQYDTQCSLAGVGIEMGDWQEVWDENTGCYYYWNTQTNEVTWELPQYLVTQVQGLQHYQP
6. SGWQYDTQCSLAGVGIEMGDWREVWDENTGCYYYWNTQTNEVTWELPQYLATQVQGLQHYQP
7. SGWQYDTQCSLAGVGIEMGDWQEVWDENTGCYYYWNTQTNEVTWELPQYLAPQVQGLQHYQP

a:
-0.295
0.065
0.065
-0.4
-0.237
0.006
-0.486

List the reported abundance fitness of each variant below.
1. SGWQYDTQCSLAGVGIEMGDWQEVWDENTGCYYYINTQTNEVTWELPQYLATQVQGLQHYQP
2. SGWEYDTQCSLAGVGIEMGDWQEVWDENTGCYYYWNTQTNEVTWELPQYLATQVQGLQHYQP
3. SGWQYDTQCSLAGVGIEMGDWQEVWDENTGCYYYWNTQTNEVTWEQPQYLATQVQGLQHYQP
4. SGWQYDTQCSLAGVGIEMGDWQEVWDENTGCYYYWNTQTNEVTWELPQYLATQVQGLKHYQP
5. SGWQYDTQCSLAGVGIHMGDWQEVWDENTGCYYYWNTQTNEVTWELPQYLATQVQGLQHYQP

a:
1. 0.09
2. -0.037
3. -0.264
4. 0.127
5. -0.105

List the reported abundance fitness of each variant below.
1. SGWQYDTQCSLAGVGIEMGDWQEVWDENYGCYYYWNTQTNEVTWELPQYLATQVQGLQHYQP
2. SGWQYDTQCSLAGVGIEMGDWQEVWDENTGCYYYWNTQLNEVTWELPQYLATQVQGLQHYQP
3. SGWQYDTQCSLAGVGIEMGDWQEVWDENTGCYYYWNTSTNEVTWELPQYLATQVQGLQHYQP
4. SGWQYDIQCSLAGVGIEMGDWQEVWDENTGCYYYWNTQTNEVTWELPQYLATQVQGLQHYQP
5. SGWQYDTQCSLAGVGIEMGDDQEVWDENTGCYYYWNTQTNEVTWELPQYLATQVQGLQHYQP

a:
1. 0.019
2. -0.461
3. -0.019
4. -0.453
5. -0.716

List the reported abundance fitness of each variant below.
1. SGWQYDTQCSLAGVGIVMGDWQEVWDENTGCYYYWNTQTNEVTWELPQYLATQVQGLQHYQP
2. SQWQYDTQCSLAGVGIEMGDWQEVWDENTGCYYYWNTQTNEVTWELPQYLATQVQGLQHYQP
3. SGWQYDTQCSLAGVGIEMGDWQEVWDENTACYYYWNTQTNEVTWELPQYLATQVQGLQHYQP
4. SMWQYDTQCSLAGVGIEMGDWQEVWDENTGCYYYWNTQTNEVTWELPQYLATQVQGLQHYQP

a:
-0.237
0.052
-0.095
0.19

List the reported abundance fitness of each variant below.
1. SGWQYDTQCSLAGVGIEMGDWQEVWDENTSCYYYWNTQTNEVTWELPQYLATQVQGLQHYQP
2. SGWQYDTQCSLAGVGIEMGDWQEVWDENTGCYYYWNTQTNEVTWELPQYLATQVMGLQHYQP

a:
0.006
-0.102
